# measurement target: SIN DEN1-NS1 (Singaporean variant, 96.3% homology) (Dengue virus 1) (UniProt P33478)
# method description: SPR
# applied conditions: Ds at both x; 5' biotin; 25 C, 150 mM NaCl, 1 mM MgCl2
pKd: −log10 of the molar value.
measured endpoint: pKd

[[record]]
sequence_entry = "TTTTCGCACTCCATGATATGGTCTACTGAGCGAGACGATGCTGCTAAANTACGCCGTGGTNACGAAGACAGACAAGCGGAGTAGTTAGACCGTGAAA [19D1F1 (isolate, AptD1b)]"
measured_endpoint = "pKd"
data_value = 11.04


###

# measurement target: DEN4-NS1 (Dominica/814669/1981) (Dengue virus 4) (UniProt P09866)
# Sequence: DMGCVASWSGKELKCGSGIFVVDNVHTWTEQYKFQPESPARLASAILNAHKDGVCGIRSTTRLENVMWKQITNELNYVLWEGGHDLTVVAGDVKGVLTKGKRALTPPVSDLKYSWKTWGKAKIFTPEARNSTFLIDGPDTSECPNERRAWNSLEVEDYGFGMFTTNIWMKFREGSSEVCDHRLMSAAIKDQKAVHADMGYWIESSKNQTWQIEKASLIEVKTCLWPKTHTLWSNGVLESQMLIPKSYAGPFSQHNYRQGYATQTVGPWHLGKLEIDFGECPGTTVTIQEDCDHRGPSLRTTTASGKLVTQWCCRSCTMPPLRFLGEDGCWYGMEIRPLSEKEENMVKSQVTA
# method description: SPR
# applied conditions: Ds at both n; biotin-dT in 3' mini-hairpin
measured endpoint: Kd

[[record]]
sequence_entry = "CTCCGCTGTCAAACGGNTATCACGGCNACACACCTGCGGACAGCGGAGCGCGTAGCG [D4-1-57h]"
data_value = "0.029 nM"

[[record]]
sequence_entry = "CGGCGGAGACGTAACGCNTATCAAATCNAAACAGCTTAGGGTCCGCCGCGCGTAGCG [D4-3-57h (AptD4)]"
data_value = "0.03 nM"

